Reported GI50 values for a set of compounds
Test system: SK-OV-3
ASSAY NOTES: NCI tumour cell line growth inhibition, 48 h
Activity calls are given as the source filed them. No stated cut-off is given here; in the data, active = GI50 up to about 1.1 µM and inactive = higher.

> print(dat)
                                   compound  value.type               result
1  NC(CCCCNCc1ccccc1)C(=O)O (stereo unspecified)        GI50  > 100 µM (inactive)
2  COc1cc(C2C(C(=O)Nc3ccccc3C)=C(C)NC(C)=C2C(=O)Nc2ccccc2C)ccc1O        GI50  > 100 µM (inactive)
3                 CCN(CC)CSc1nc2ccccc2[nH]1        GI50  > 100 µM (inactive)
4  O=[N+]([O-])c1ccc(Cl)cc1N/N=C/c1cccc2cccnc12        GI50  > 100 µM (inactive)
5  C=CCN(C(=O)OC(C)(C)C)C1=CC2C(C)=CN(S(=O)(=O)c3ccccc3)C2C(OCc2ccccc2)=C1 (stereo unspecified)        GI50  > 100 µM (inactive)

Consider the record given below.
GI50 recorded for this compound, `Fc1ccc(C(OCCN2CCN(CCCc3ccccc3)CC2)c2ccc(F)cc2)cc1` , is 6.04 µM (inactive)
